experiment: Acute toxicity (DL50) i.v. in rat; type: in vivo; conditions: in vivo, iv, dose causing death in 50% of the animals
Would you mind classing the entries by LD50? Ranges: bottom = under 40 mg/kg, middle = from 40 mg/kg up to 60 mg/kg, top = 60 mg/kg and over

Would you please look over these solved cases?
compound="CCCN(CCC)C(=O)C(Cc1ccc(OCCN(CC)CC)cc1)NC(=O)c1ccccc1 (racemic) [CR 605]" classification=bottom
compound="CCN(CC)CCOc1ccc(CC(NC(=O)c2ccccc2)C(=O)N(CC)CC)cc1 (racemic)" classification=top
compound="CCCN(CCC)C(=O)C(Cc1ccc(OCCCN2CCN(C)CC2)cc1)NC(=O)c1ccc(Cl)cc1 (racemic)" classification=top

Dear colleague, I would appreciate it if you could identify the bin for CCCN(CCC)C(=O)C(Cc1ccc(OCCN(CC)CC)cc1)NC(=O)c1ccc(C)c(C)c1 (racemic) and reply at your convenience. bottom

Dear colleague, I would appreciate it if you could identify the bin for CCCN(CCC)C(=O)C(Cc1ccc(OCCN(CC)CC)cc1)NC(=O)OCc1ccccc1 (stereo not shown) [CR 830] and reply at your convenience. bottom

----------
For each record, write down the corresponding Antispastic activity in vitro, rat uterus, oxytocine (relative to papaverine = 1).
system: rat uterus (oxytocine spasm); test: Antispastic activity in vitro on rat uterus, spasmiser oxytocine; type: cell-based; settings: Table 2; ED50 ratio

As a guide, the following entries are already answered.
molecule="CCCN(CCC)C(=O)C(Cc1ccc(OCCN(C)C)cc1)NC(=O)OCc1ccccc1 (stereo not shown) [CR 603]" measured=0.008
molecule="CCCN(CCC)C(=O)C(Cc1ccc(OCCCN2CCN(C)CC2)cc1)NC(=O)c1ccc(Cl)cc1 (racemic) [CR 725]" measured=0.18
molecule="CCCN(CCC)C(=O)C(Cc1ccc(OCCN(CC)CC)cc1)NC(=O)c1ccccc1 (racemic) [CR 605]" measured=0.09

--- query ---
Reported Antispastic activity in vitro, rat uterus, oxytocine (relative to papaverine = 1) for rat uterus (oxytocine spasm), given CCCN(CCC)C(=O)C(Cc1ccc(OCCN(CC)CC)cc1)NC(=O)c1ccc(Cl)cc1 (racemic) [CR 716] ? 0.06

----------
For each record, write down the corresponding DL50 in a rat.
test system: rat; test: Acute toxicity (DL50) i.v. in rat; assay type: in vivo; conditions: dose causing death in 50% of the animals
One number for each entry, in mg/kg.

As a guide, the following entries are already answered.
compound="CCCN(CCC)C(=O)C(Cc1ccc(OCCN(CC)CC)cc1)NC(=O)OCc1ccccc1 (centres unmarked)" unit_tag=mg/kg measured=34.0
compound="CCCCN(CCCC)C(=O)C(Cc1ccc(OCCCN2CCN(C)CC2)cc1)NC(=O)c1ccccc1Cl (racemic)" unit_tag=mg/kg measured=61
compound="CCCN(CCC)C(=O)C(Cc1ccc(OCCN(CC)CC)cc1)NC(=O)c1ccc(C)cc1 (racemic)" unit_tag=mg/kg measured=31.5

State recorded DL50 in a rat for all listed compounds.
1. CCCN(CCC)C(=O)C(Cc1ccc(OCCCN(C)C)cc1)NC(=O)c1ccccc1 (racemic) [CR 607]
2. CCCCNC(=O)C(Cc1ccc(OCCN2CCCC2)cc1)NC(=O)c1ccc(C)cc1 (racemic)

1: 32.4; 2: 34.1

----------
system: intestinal transit of the charcoal; assay: Vegetable carbon (charcoal) intestinal transit test in vivo; parameters: species or system rat; settings: Rattus norvegicus, iv, 2 h, i.v., rat, charcoal test, 2 hours; read-out: Antisp. activity in transit test: ED50
OBSERVABLE: ED50 (mg/kg)
One number for each entry, in mg/kg.

compound="CCCN(CCC)C(=O)C(Cc1ccc(OCCN(CC)CC)cc1)NC(=O)c1ccc(Cl)cc1 (stereo not drawn) [CR 831]" measured_on="intestinal transit of the charcoal" measured=24.4
compound="CCCN(CCC)C(=O)C(Cc1ccc(OCCN(CC)CC)cc1)NC(=O)OCc1ccccc1 (racemic) [CR 832]" measured_on="intestinal transit of the charcoal" measured=16.3
compound="CCCN(CCC)C(=O)C(Cc1ccc(OCCCN2CCN(CCO)CC2)cc1)NC(=O)c1ccccc1 (racemic)" measured_on="intestinal transit of the charcoal" measured=50.5
compound="CCNC(=O)C(Cc1ccc(OCCN(C)C)cc1)NC(=O)c1ccccc1 (racemic)" measured_on="intestinal transit of the charcoal" measured=104
compound="CCCN(CCC)C(=O)C(Cc1ccc(OCCN(CC)CC)cc1)NC(=O)c1ccc(C)c(C)c1 (racemic)" measured_on="intestinal transit of the charcoal" measured=26

State recorded ED50 for all listed compounds.
1. CCCN(CCC)C(=O)C(Cc1ccc(OCCN(C)C)cc1)NC(=O)c1ccccc1 (racemic)
2. CCCN(CCC)C(=O)C(Cc1ccc(OCCN(CC)CC)cc1)NC(=O)c1ccccc1 (racemic) [CR 605]
3. CCCCNC(=O)C(Cc1ccc(OCCN(CC)CC)cc1)NC(=O)c1ccc(Cl)cc1 (racemic)
4. CCCN(CCC)C(=O)C(Cc1ccc(OCCN(CC)CC)cc1)NC(=O)c1ccc(OC)cc1 (racemic)

1: 47.5; 2: 10.6; 3: 23; 4: 20.2
